Each recorded value in this set is attributed to patent US20240317721A1.

subject-of-test: KRasG12C (M1-K169, biotinylated on the N-terminus) (Homo sapiens (Human), UniProt P01116, G12C)
test-name: Covalent competition assay: scintillation proximity assay (SPA) quantifying covalent modification of KRASG12C
assay-setup: competition with radiolabeled covalent probe (Compound B/Compound A), 2 hours incubation, 10 nM KRasG12C
pIC50: −log10 of the molar value.
metric-name: pIC50

INSERT INTO assay_data (compound, metric_name, result_value) VALUES
  ('C=CC(=O)N1CC2(CC(n3nc(N4CC[C@@H](CN5CCCC6CN(C)C(=O)C65)CC4(C)C)c(-c4c(Cl)c(Cl)cc5[nH]ncc45)c3C)C2)C1 (single isomer, unassigned) [Example 262a]', 'pIC50', '< 5.30'),
  ('C=CC(=O)N1CC2(CC(n3nc(N4CCN(C5COC5)C[C@]4(C)CC)c(-c4c(Cl)c(C)cc5[nH]nc(N)c45)c3C)C2)C1 (single isomer, unassigned) [Example 158a]', 'pIC50', 8.22),
  ('C=CC(=O)N1CC2(CC(n3nc(N4CCN(C(=O)[C@@H]5CCCO5)CC45CCC5)c(-c4c(Cl)c(C)cc5[nH]ncc45)c3C)C2)C1 (single isomer, unassigned) [Example 124a]', 'pIC50', '< 5.30');
